- Tested on: 885724-159-R-J1-PDC KRAS PDC multicell spheroid viability
- protocol_text: Anticancer human tumor 885724-159-R-J1-PDC patient-derived pancreatic adenocarcinoma cell line growth inhibition [KRAS2]
- condition_context: compound 1 µM; stronger effect = lower value
property_label: viability, T/C

CCN1CCN(Cc2ccc(Nc3ncc(F)c(-c4cc(F)c5nc(C)n(C(C)C)c5c4)n3)nc2)CC1 ... 94% [middle of 5 runs]
O=C(c1cc(Cc2n[nH]c(=O)c3ccccc23)ccc1F)N1CCN(C(=O)C2CC2)CC1 ... 106% [middle of 5 runs]

// field: viability, T/C; key: CC1(C)CCC(CN2CCN(c3ccc(C(=O)NS(=O)(=O)c4ccc(NCC5CCOCC5)c([N+](=O)[O-])c4)c(Oc4cnc5[nH]ccc5c4)c3)CC2)=C(c2ccc(Cl)cc2)C1 ; value = 97.1% [middle of 5 runs]

// field: viability, T/C; key: COc1cc(Nc2ncc3c(n2)-c2ccc(Cl)cc2C(c2c(F)cccc2OC)=NC3)ccc1C(=O)O ; value = 90% [middle of 5 runs]

----------
- Test system: 885724-159-R-J1-PDC KRAS PDC multicell spheroid viability
- protocol_text: Anticancer human tumor 885724-159-R-J1-PDC cell line growth inhibition [KRAS2];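 further: spheroids exposed to agents for 7 days before readout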
- condition_context: second compound 3.16 µM; first compound 3.16 µM; stronger effect = lower value
property_label: viability, T/C (%)
Note: unit % is implicit; provide only the numeric part.

// field: viability, T/C; key: CC1OCC2(CCN(c3cnc(Sc4ccnc(N)c4Cl)c(N)n3)CC2)C1N (stereo not given) + C=CC(=O)N1CCN(c2nc(OCC3CCCN3C)nc3c2CCN(c2cccc4cccc(C)c24)C3)CC1CC#N ; value = 35.1

// field: viability, T/C; key: COC(=O)c1ccc2c(C(=Nc3ccc(N(C)C(=O)CN4CCN(C)CC4)cc3)c3ccccc3)c(O)[nH]c2c1 + C=CC(=O)N1CCN(c2nc(OCC3CCCN3C)nc3c2CCN(c2cccc4cccc(C)c24)C3)CC1CC#N ; value = 1.11

// field: viability, T/C; key: COc1cc2nccc(Oc3ccc(NC(=O)C4(C(=O)Nc5ccc(F)cc5)CC4)cc3)c2cc1OC + CNCc1ccccc1-c1csc(C(C)Nc2nc(C)nc3cc(OC)c(OC)cc23)c1 ; value = 0.32

// field: viability, T/C; key: O=C(c1cc(Cc2n[nH]c(=O)c3ccccc23)ccc1F)N1CCN(C(=O)C2CC2)CC1 + COc1cc2nc(C)nc(NC(C)c3cc(N)cc(C(F)(F)F)c3)c2cc1OC1CCOC1 ; value = 91.9

----------
A collection of compounds and their measured viability, T/C
- Tested on: 885724-159-R-J1-PDC KRAS PDC multicell spheroid viability
- protocol_text: Anticancer human tumor 885724-159-R-J1-PDC cell line growth inhibition [KRAS2];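 further: spheroids exposed to agents for 7 days before readout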
- condition_context: second compound 0.316 µM; first compound 0.1 µM; stronger effect = lower value
Note: unit % is implicit; provide only the numeric part.

// known answers, use as guide
O=C(c1cc(Cc2n[nH]c(=O)c3ccccc23)ccc1F)N1CCN(C(=O)C2CC2)CC1 + C=CC(=O)N1CCN(c2nc(=O)n(-c3c(C)ccnc3C(C)C)c3nc(-c4c(O)cccc4F)c(F)cc23)C(C)C1 ... 115
COC(=O)c1ccc2c(C(=Nc3ccc(N(C)C(=O)CN4CCN(C)CC4)cc3)c3ccccc3)c(O)[nH]c2c1 + C=CC(=O)N1CCN(c2nc(OCC3CCCN3C)nc3c2CCN(c2cccc4cccc(C)c24)C3)CC1CC#N ... 100
CC(=O)OC12COC1CC(O)C1(C)C(=O)C(O)C3=C(C)C(OC(=O)C(O)C(NC(=O)OC(C)(C)C)c4ccccc4)CC(O)(C(OC(=O)c4ccccc4)C21)C3(C)C (stereo not given) + CNCc1ccccc1-c1csc(C(C)Nc2nc(C)nc3cc(OC)c(OC)cc23)c1 ... 96.2
CC(C)NCC(C(=O)N1CCN(c2ncnc3c2C(C)CC3O)CC1)c1ccc(Cl)cc1 (stereo not given) + C=CC(=O)N1CCN(c2nc(OCC3CCCN3C)nc3c2CCN(c2cccc4cccc(C)c24)C3)CC1CC#N ... 74.3

Now for the compound whose viability, T/C we want.
// field: viability, T/C; key: COc1cc2nccc(Oc3ccc(NC(=O)C4(C(=O)Nc5ccc(F)cc5)CC4)cc3)c2cc1OC + CNCc1ccccc1-c1csc(C(C)Nc2nc(C)nc3cc(OC)c(OC)cc23)c1 ; value = 101

----------
- Test system: 885724-159-R-J1-PDC KRAS PDC multicell spheroid viability
- protocol_text: Anticancer human tumor 885724-159-R-J1-PDC cell line growth inhibition [KRAS2];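 further: spheroids exposed to agents for 7 days before readout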
- condition_context: second compound 10 µM; first compound 1 µM; stronger effect = lower value
- Text: Multicellular complex tumor spheroid response to RAS pathway inhibitors in combination with a targeted agents in patient-derived cell lines with oncogenic KRAS variants from multiple cancer types A high-throughput screen of multi-cell type tumor spheroids was designed to identify active combinations of targeted small molecules and KRAS pathway inhibitors. […] Compounds. […] If the clinical Cmax for an agent had not been determined, the highest concentration tested was 10 microM. […]
property_label: viability, T/C (%)
Note: unit % is implicit; provide only the numeric part.

CC(C)NCC(C(=O)N1CCN(c2ncnc3c2C(C)CC3O)CC1)c1ccc(Cl)cc1 (configuration not stated) + CNCc1ccccc1-c1csc(C(C)Nc2nc(C)nc3cc(OC)c(OC)cc23)c1 ... 0.31
Cn1nccc1Nc1nccc(-c2cc3c(s2)C(C)(C)N(CCN2CCOCC2)C3=O)n1 + CC1OCC2(CCN(c3cnc(Sc4ccnc(N)c4Cl)c(N)n3)CC2)C1N ... 26.6
CC1COCCN1c1cc(-c2ccnn2C)c2ccnc(-c3ccn[nH]3)c2n1 (configuration not stated) + C=CC(=O)N1CCN(c2nc(=O)n(-c3c(C)ccnc3C(C)C)c3nc(-c4c(O)cccc4F)c(F)cc23)C(C)C1 ... 45.6
COC(=O)c1ccc2c(C(=Nc3ccc(N(C)C(=O)CN4CCN(C)CC4)cc3)c3ccccc3)c(O)[nH]c2c1 + CNCc1ccccc1-c1csc(C(C)Nc2nc(C)nc3cc(OC)c(OC)cc23)c1 ... 0.33
CC(C)NCC(C(=O)N1CCN(c2ncnc3c2C(C)CC3O)CC1)c1ccc(Cl)cc1 (configuration not stated) + CC1OCC2(CCN(c3cnc(Sc4ccnc(N)c4Cl)c(N)n3)CC2)C1N ... 37

// field: viability, T/C; key: CC1(C)CCC(CN2CCN(c3ccc(C(=O)NS(=O)(=O)c4ccc(NCC5CCOCC5)c([N+](=O)[O-])c4)c(Oc4cnc5[nH]ccc5c4)c3)CC2)=C(c2ccc(Cl)cc2)C1 + CNCc1ccccc1-c1csc(C(C)Nc2nc(C)nc3cc(OC)c(OC)cc23)c1 ; value = 0.2

// field: viability, T/C; key: COc1cc(Nc2ncc3c(n2)-c2ccc(Cl)cc2C(c2c(F)cccc2OC)=NC3)ccc1C(=O)O + C=CC(=O)N1CCN(c2nc(=O)n(-c3c(C)ccnc3C(C)C)c3nc(-c4c(O)cccc4F)c(F)cc23)C(C)C1 ; value = 58.2

----------
- System: 885724-159-R-J1-PDC KRAS PDC multicell spheroid viability
- protocol_text: Anticancer human tumor 885724-159-R-J1-PDC cell line growth inhibition [KRAS2];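 further: spheroids exposed to agents for 7 days before readout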
- condition_context: second compound 10 µM; first compound 0.00316 µM; stronger effect = lower value
A collection of compounds and their measured viability, T/C
Note: unit % is implicit; provide only the numeric part.

CC(=O)Nc1cccc(-n2c(=O)n(C3CC3)c(=O)c3c(Nc4ccc(I)cc4F)n(C)c(=O)c(C)c32)c1 + C=CC(=O)N1CCN(c2nc(=O)n(-c3c(C)ccnc3C(C)C)c3nc(-c4c(O)cccc4F)c(F)cc23)C(C)C1 ... 26.4
CCN1CCN(Cc2ccc(Nc3ncc(F)c(-c4cc(F)c5nc(C)n(C(C)C)c5c4)n3)nc2)CC1 + C=CC(=O)N1CCN(c2nc(=O)n(-c3c(C)ccnc3C(C)C)c3nc(-c4c(O)cccc4F)c(F)cc23)C(C)C1 ... 72.6
CCN1CCN(Cc2ccc(Nc3ncc(F)c(-c4cc(F)c5nc(C)n(C(C)C)c5c4)n3)nc2)CC1 + CNCc1ccccc1-c1csc(C(C)Nc2nc(C)nc3cc(OC)c(OC)cc23)c1 ... 0.19
CN(C)C/C=C/C(=O)Nc1cc2c(Nc3ccc(F)c(Cl)c3)ncnc2cc1O[C@H]1CCOC1 + C=CC(=O)N1CCN(c2nc(=O)n(-c3c(C)ccnc3C(C)C)c3nc(-c4c(O)cccc4F)c(F)cc23)C(C)C1 ... 83.2
CC(=O)Nc1cccc(-n2c(=O)n(C3CC3)c(=O)c3c(Nc4ccc(I)cc4F)n(C)c(=O)c(C)c32)c1 + CC1OCC2(CCN(c3cnc(Sc4ccnc(N)c4Cl)c(N)n3)CC2)C1N ... 19.6

// field: viability, T/C; key: CC(C)n1nc(-c2ccc3oc(N)nc3c2)c2c(N)ncnc21 + COc1cc2nc(C)nc(NC(C)c3cc(N)cc(C(F)(F)F)c3)c2cc1OC1CCOC1 ; value = 47.5
